Can you tell me EC50 for the items I'm about to list?
target: Opioid Kappa Receptor (recombinant human, HEK293 cells) (Homo sapiens (Human), UniProt P41145); experiment: cell-based; conditions: read-out: EC50
One number for each entry, in nM.

>  <molecule>
CCNC(=O)C(=O)N1CCN(C(=O)[C@@H](CCCCN)NC(=O)[C@@H](CC(C)C)NC(=O)[C@@H](Cc2ccccc2)NC(=O)[C@H](N)Cc2ccccc2)CC1

>  <EC50, nM>
8.7

$$$$

Hello, I would appreciate it if you could give EC50 for each entry below.
1. CC(C)C[C@@H](NC(=O)[C@@H](Cc1ccccc1)NC(=O)[C@H](N)Cc1ccccc1)C(=O)N[C@H](CCCCN)C(=O)N1CCN(C(=O)NC2CC2)CC1
2. CC(C)C[C@@H](NC(=O)[C@@H](Cc1ccccc1)NC(=O)[C@H](N)Cc1ccccc1)C(=O)N[C@H](CCCCN)C(=O)N1CCN(C(=O)C(=O)N(C)C)CC1

Result string:
[5.69, 10.2]

So, CC(C)C[C@@H](NC(=O)[C@@H](Cc1ccccc1)NC(=O)[C@H](N)Cc1ccccc1)C(=O)N[C@H](CCCCN)C(=O)N1CCC(NC(=O)C(N)C(=O)O)CC1 (stereo partly shown) ? Its EC50 was 7.48

----------
target: recombinant human mu (MOR) opioid receptor (Homo sapiens (Human), UniProt P35372); experiment: Opioid receptor radioligand binding assay, MOR; settings: HEK293 cell membranes, 0.5 nM [3H]DAMGO; read-out: MOR, IC50
Square brackets hold non-standard residues; d marks the D form. Peptide text beside a SMILES is read from it. * marks the point of attachment. Pyrrolidinyl(3-NH2,3-CO2Me) = COC(=O)C1(N)CCN(*)C1; dAla(cPr) = N[C@H](CC1CC1)C(=O)O
Please respond with reported IC50 for every item in the list.

>  <compound>
CNCCOC(=O)C1(N)CCN(C(=O)[C@@H](CCCCN)NC(=O)[C@@H](CC(C)C)NC(=O)[C@@H](Cc2ccccc2)NC(=O)[C@H](N)Cc2ccccc2)C1 (stereo partly drawn)

>  <experimental.result>
> 10 µM

$$$$
>  <compound>
COCCNC(=O)[C@@H](CCCCN)NC(=O)[C@@H](CC(C)C)NC(=O)[C@@H](Cc1ccccc1)NC(=O)[C@H](N)Cc1ccccc1

>  <experimental.result>
> 10 µM

$$$$

Sample COC(=O)C1(N)CCN(C(=O)[C@@H](CCCCN)NC(=O)[C@@H](CC2CC2)NC(=O)[C@@H](Cc2ccccc2)NC(=O)[C@H](N)Cc2ccccc2)C1 (stereo partly drawn) [Compound 118] (H-[dF][dF][dAla(cPr)][dK]-{Pyrrolidinyl(3-NH2,3-CO2Me)}) , system: recombinant human mu (MOR) opioid receptor (Homo sapiens (Human), UniProt P35372). Its IC50 is > 10 µM

----------
Please provide measured pIC50 for the entries that follow.
molecular target: recombinant human mu (MOR) opioid receptor (Homo sapiens (Human)); test: Opioid receptor radioligand binding assay, MOR
pIC50: −log10 of the molar value.

Examples with answers:
>  <compound>
COC(=O)C1(N)CCN(C(=O)[C@@H](CCCCN)NC(=O)[C@@H](CC(C)C)NC(=O)[C@@H](Cc2ccccc2)NC(=O)[C@H](N)Cc2ccccc2)C1 (some centres unmarked)

>  <pIC50>
< 5.00

$$$$
>  <compound>
CC(C)C[C@@H](NC(=O)[C@@H](Cc1ccccc1)NC(=O)[C@H](N)Cc1ccccc1)C(=O)N[C@H](CCCCN)C(=O)NCc1n[nH]c(=O)[nH]1

>  <pIC50>
< 5.00

$$$$
>  <compound>
CC(C)C[C@@H](NC(=O)[C@@H](Cc1ccccc1)NC(=O)[C@H](N)Cc1ccccc1)C(=O)N[C@H](CCCCN)C(=O)NCc1ccc2c(c1)OCO2

>  <pIC50>
5.68

$$$$
>  <compound>
CC(=O)N[C@@H](CCC(N)=O)C(=O)NC1CCN(C(=O)[C@@H](CCCCN)NC(=O)[C@@H](CC(C)C)NC(=O)[C@@H](Cc2ccccc2)NC(=O)[C@H](N)Cc2ccccc2)CC1

>  <pIC50>
< 5.00

$$$$

pIC50 reading for `CNC(=O)NC1CCN(C(=O)[C@@H](CCCCN)NC(=O)[C@@H](CC(C)C)NC(=O)[C@@H](Cc2ccccc2)NC(=O)[C@H](N)Cc2ccccc2)CC1` : < 5.00

----------
target: recombinant human kappa (KOR) opioid receptor (Homo sapiens (Human)); experiment: biochemical; assay type: binding; settings: HEK293 cell membranes, 0.5 nM [3H]diprenorphine
Square brackets hold non-standard residues; d marks the D form. Peptide text beside a SMILES is read from it. * marks the point of attachment. ξ: configuration not given here. Pyrrolidinyl(3-NH2,3-CO2Me) = COC(=O)C1(N)CCN(*)C1; Aic = NC1(C(=O)O)Cc2ccccc2C1; ξL = CC(C)CC(N)C(=O)O
value.type: IC50
Give the number first and the unit second.

Below: 2 compounds and their reported IC50.
>  <compound>
CC(C)C[C@@H](NC(=O)[C@@H](Cc1ccccc1)NC(=O)[C@H](N)Cc1ccccc1)C(=O)N[C@H](CCCCN)C(=O)N1CCC(N)(C(=O)OCCN)C1 (stereo partly drawn)

>  <experimental.result>
0.45 nM

$$$$
>  <compound>
COC(=O)C(=O)NC1CCN(C(=O)[C@@H](CCCCN)NC(=O)[C@@H](CC(C)C)NC(=O)[C@@H](Cc2ccccc2)NC(=O)[C@H](N)Cc2ccccc2)CC1

>  <experimental.result>
0.29 nM

$$$$

Sample COC(=O)C1(N)CCN(C(=O)[C@@H](CCCCN)NC(=O)C(CC(C)C)NC(=O)[C@@H](Cc2ccccc2)NC(=O)C2(N)Cc3ccccc3C2)C1 (stereo partly drawn) [Compound 156] (H-[Aic][dF][ξL][dK]-{Pyrrolidinyl(3-NH2,3-CO2Me)}) , system: recombinant human kappa (KOR) opioid receptor (Homo sapiens (Human)). Its IC50 is 2.3 nM

----------
For each entry below, report its EC50 value.
target: Opioid Kappa Receptor (recombinant human, HEK293 cells) (Homo sapiens (Human), UniProt P41145); assay: cell-based; conditions: read-out: EC50
Numbers only, in nM.

>  <compound>
COC(=O)[C@@H](N)CNC(=O)[C@@H](CCCCN)NC(=O)[C@@H](CC(C)C)NC(=O)[C@@H](Cc1ccccc1)NC(=O)[C@H](N)Cc1ccccc1 [Compound 13-12]

>  <measure.unit>
nM

>  <experimental.result>
7.07

$$$$

Each compound below has a reported value. Please supply its EC50.
1. CC(C)C[C@@H](NC(=O)[C@@H](Cc1ccccc1)NC(=O)[C@H](N)Cc1ccccc1)C(=O)N[C@H](CCCCN)C(=O)NCc1ccncc1 [Compound 13-53]
2. CCNC(=O)C(=O)NC1CCN(C(=O)[C@@H](CCCCN)NC(=O)[C@@H](CC(C)C)NC(=O)[C@@H](Cc2ccccc2)NC(=O)[C@H](N)Cc2ccccc2)CC1 [Compound 13-35]

Result string:
1. 12.6
2. 10.8

// for each compound below, give its EC50
1. CNC(=O)N1CCN(C(=O)[C@@H](CCCCN)NC(=O)[C@@H](CC(C)C)NC(=O)[C@@H](Cc2ccccc2)NC(=O)[C@H](N)Cc2ccccc2)CC1 [Compound 13-58]
2. CC(C)C[C@@H](NC(=O)[C@@H](Cc1ccccc1)NC(=O)[C@H](N)Cc1ccccc1)C(=O)N[C@H](CCCCN)C(=O)NCc1n[nH]c(=O)[nH]1 [Compound 13-45]

Result string:
10.8
1.53

----------
Please respond with reported IC50 for every item in the list.
biological target: recombinant human mu (MOR) opioid receptor (Homo sapiens (Human), UniProt P35372); assay: Opioid receptor radioligand binding assay, MOR; details: HEK293 cell membranes, 0.5 nM [3H]DAMGO; read-out: MOR, IC50
Give bare numbers, in µM.

>  <compound>
CC(C)C[C@@H](NC(=O)[C@@H](Cc1ccccc1)NC(=O)[C@H](N)Cc1ccccc1)C(=O)N[C@H](CCCCN)C(=O)N1CCC(NC(=O)C(N)C(=O)O)CC1 (some centres unmarked) [Compound 13-40]

>  <experimental.result>
6.39

$$$$

Next up:
// field: IC50; key: CC(C)C[C@@H](NC(=O)[C@@H](Cc1ccccc1)NC(=O)[C@H](N)Cc1ccccc1)C(=O)N[C@H](CCCCN)C(=O)N1CCC(NC(=O)CC[C@H](N)C(N)=O)CC1 [Compound 13-41] ; value = 8.22

----------
target: Opioid Kappa Receptor (recombinant human, HEK293 cells) (Homo sapiens (Human), UniProt P41145); experiment: cell-based; conditions: read-out: EC50
For each entry below, report its pEC50 value.
Give bare numbers, as −log10 of the molar value.

Use the examples below as a reference point.
>  <compound>
CNCCOC(=O)C1(N)CCN(C(=O)[C@@H](CCCCN)NC(=O)[C@@H](CC(C)C)NC(=O)[C@@H](Cc2ccccc2)NC(=O)[C@H](N)Cc2ccccc2)C1 (some centres unmarked) [Compound 60]

>  <experimental.result>
8.14

$$$$
>  <compound>
CNC(=O)C(=O)N1CCN(C(=O)[C@@H](CCCCN)NC(=O)[C@@H](CC(C)C)NC(=O)[C@@H](Cc2ccccc2)NC(=O)[C@H](N)Cc2ccccc2)CC1 [Compound 13-27]

>  <experimental.result>
7.92

$$$$
>  <compound>
CC(C)C[C@@H](NC(=O)[C@@H](Cc1ccccc1)NC(=O)[C@H](N)Cc1ccccc1)C(=O)N[C@H](CCCCN)C(=O)NCc1ccnc(C(=O)O)c1 [Compound 13-8]

>  <experimental.result>
7.83

$$$$
>  <compound>
COC(=O)/C=C/C(=O)NC1CCN(C(=O)[C@@H](CCCCN)NC(=O)[C@@H](CC(C)C)NC(=O)[C@@H](Cc2ccccc2)NC(=O)[C@H](N)Cc2ccccc2)CC1 [Compound 13-19]

>  <experimental.result>
7.12

$$$$

CC(C)C[C@@H](NC(=O)[C@@H](Cc1ccccc1)NC(=O)[C@H](N)Cc1ccccc1)C(=O)N[C@H](CCCCN)C(=O)NCc1ccc(O)c(O)c1 [Compound 13-10] has a reported pEC50 of 7.64
